PROTOCOL DESCRIPTION: Ibrutinib and SMT-conjugate pharmacokinetics in human subjects (plasma of patients A and B)
CONDITIONS USED: human, 420 mg, Concentration, patient A, sample ID 10, T 22.2 h, 1xdd 420mg, group trough
I'd appreciate it if you could supply concentration at 22.2 h values for the items below.
One number for each entry, in nM.

# annotated cases, reported concentration at 22.2 h shown
Nc1ncnc2c1c(-c1ccc(Oc3ccccc3)cc1)nn2[C@@H]1CCCN(C(=O)CCSC[C@H](N)C(=O)O)C1 [ICYS]    5
Nc1ncnc2c1c(-c1ccc(Oc3ccccc3)cc1)nn2[C@@H]1CCCN(C(=O)CCSC[C@H](N)C(=O)NCC(=O)O)C1 [ICGS]    3.7

Look up and state reported concentration at 22.2 h for Nc1ncnc2c1c(-c1ccc(Oc3ccccc3)cc1)nn2[C@@H]1CCCN(C(=O)C(O)CO)C1 (stereo partly drawn) [DHI, dihydrodiol-ibrutinib] 90.7

* * *

PROTOCOL DESCRIPTION: Half-life of IGSH in human plasma
Format: in vitro ADME
CONDITIONS USED: 37 °C, in vitro
PARAMETER: half-life at 500 nM (min)
Answers are plain numbers, in min.

Look up and state reported half-life at 500 nM for Nc1ncnc2c1c(-c1ccc(Oc3ccccc3)cc1)nn2[C@@H]1CCCN(C(=O)CCSC[C@H](NC(=O)CC[C@H](N)C(=O)O)C(=O)NCC(=O)O)C1 [IGSH] 30

* * *

PROTOCOL DESCRIPTION: Ibrutinib and SMT-conjugate pharmacokinetics in human subjects (plasma of patients A and B)
CONDITIONS USED: human, in vivo, 560 mg, Concentration, patient A, sample ID 3, T 0.8 h, 1xdd 560mg, group abs
PARAMETER: concentration at 0.8 h
Reply with the number and its unit after it.

Look up and state reported concentration at 0.8 h for C=CC(=O)N1CCC[C@@H](n2nc(-c3ccc(Oc4ccccc4)cc3)c3c(N)ncnc32)C1 [Ibrutinib, reference compound] 3.5 nM

* * *

PROTOCOL DESCRIPTION: clinical
CONDITIONS USED: human, in vivo
PARAMETER: Tmax

Look up and state reported Tmax for C=CC(=O)N1CCC[C@@H](n2nc(-c3ccc(Oc4ccccc4)cc3)c3c(N)ncnc32)C1 [Ibrutinib, reference compound] 2.6 h

* * *

PROTOCOL DESCRIPTION: Ibrutinib and SMT-conjugate pharmacokinetics in human subjects (plasma of patients A and B)
CONDITIONS USED: human, in vivo, 420 mg, Concentration, patient A, sample ID 11, T 22.6 h, 1xdd 420mg, group trough
PARAMETER: concentration at 22.6 h (nM)
One number for each entry, in nM.

Look up and state reported concentration at 22.6 h for C=CC(=O)N1CCC[C@@H](n2nc(-c3ccc(Oc4ccccc4)cc3)c3c(N)ncnc32)C1 [Ibrutinib, reference compound] 4.3

* * *

PROTOCOL DESCRIPTION: Ibrutinib and SMT-conjugate pharmacokinetics in human subjects (plasma of patients A and B)
CONDITIONS USED: human
I'd appreciate it if you could supply Tmax values for the items below.

# annotated cases, reported Tmax shown
Nc1ncnc2c1c(-c1ccc(Oc3ccccc3)cc1)nn2[C@@H]1CCCN(C(=O)CCSC[C@H](N)C(=O)NCC(=O)O)C1    2.6 h
Nc1ncnc2c1c(-c1ccc(Oc3ccccc3)cc1)nn2[C@@H]1CCCN(C(=O)CCSC[C@H](N)C(=O)O)C1    4.4 h
Nc1ncnc2c1c(-c1ccc(Oc3ccccc3)cc1)nn2[C@@H]1CCCN(C(=O)C(O)CO)C1 (stereo partly shown) [DHI, dihydrodiol-ibrutinib]    3.9 h

Look up and state reported Tmax for `Nc1ncnc2c1c(-c1ccc(Oc3ccccc3)cc1)nn2[C@@H]1CCCN(C(=O)CCSC[C@H](NC(=O)CC[C@H](N)C(=O)O)C(=O)NCC(=O)O)C1` 2.8 h
